Provide the reported melting point of each item.

Using the record for O=C(O)CCSC1=CC(=O)C(SCCC(=O)O)=CC1=O , report its melting point.
230 to 236 °C

Using the record for Cc1nn(C)c(C)c1C(=O)O , report its melting point.
218 to 219 °C

Using the record for O=C1c2ccccc2C(=O)C1c1ccc(Br)cc1 , report its melting point.
138 °C

Using the record for Clc1c(Cl)c(Cl)c2c(c1Cl)OC1Cc3ccccc3C1O2 (stereo not drawn) , report its melting point.
159 °C

Using the record for O=C(O)c1ccccc1/N=N/C1SC(=S)N(c2ccccc2)C1=O (stereo not drawn) , report its melting point.
199 °C

Using the record for O=C(O)Cc1cn(-c2ccccc2)nc1-c1ccc(Cl)cc1 , report its melting point.
150 °C

Using the record for O=C(/C=C/c1ccc(-c2ccc(Br)cc2)o1)c1ccccc1 , report its melting point.
141 to 142 °C

Using the record for CC(C)CCCC(C)C1CCC2C3CC(O)C4=CC(=O)CCC4(C)C3CCC12C (stereo not drawn) , report its melting point.
189 to 193 °C

----------
Label Yes for high-side melting point (at or above 90 °C) and No for low-side melting point (below it).

Tell me whether melting point is at least 90 °C here: OC1CCC(O)C1 (stereo not given)
No

Tell me whether melting point is at least 90 °C here: OCCN(CCO)CCc1ccc(COc2ccccc2)cc1
No

Tell me whether melting point is at least 90 °C here: O=Cc1ccccc1OC1OC(CO)C(O)C(O)C1O (stereo not given)
Yes

Tell me whether melting point is at least 90 °C here: Fc1cc2nsnc2cc1Cl
No

Tell me whether melting point is at least 90 °C here: FC(F)(F)c1cncc(C(F)(F)F)c1
No

Tell me whether melting point is at least 90 °C here: O=C1N[C@H]2CC[C@@H]1C2
No

Tell me whether melting point is at least 90 °C here: CCC(C)C(C)(COC(N)=O)COC(N)=O (stereo not given)
No

Tell me whether melting point is at least 90 °C here: Cc1ccc(NC(=O)N(C)C)cc1Cl
Yes

Tell me whether melting point is at least 90 °C here: NS(=O)(=O)c1ccc(S(=O)(=O)CCO)cc1
Yes

Tell me whether melting point is at least 90 °C here: Brc1ccc(Oc2ccccc2Br)cc1Br
No

Tell me whether melting point is at least 90 °C here: Cc1nc([N+](=O)[O-])cn1-c1ccc([N+](=O)[O-])cc1
Yes

Tell me whether melting point is at least 90 °C here: Cc1cc(C(=O)O)ccc1F
Yes

----------
Provide the reported melting point of each item.

Using the record for NNc1cc(Cl)c(C(F)(F)F)cc1[N+](=O)[O-] , report its melting point.
140 to 145 °C

Using the record for CCOC(=O)c1cc2c(=O)oc3ccccc3c2nc1NC , report its melting point.
232 to 233 °C

Using the record for Cc1cc(C)c(NC(=O)CN(CC(=O)O)CC(=O)O)c(C)c1 , report its melting point.
218 to 221 °C

Using the record for Cc1c(N=C=O)cnn1-c1ccccc1 , report its melting point.
56 to 60 °C

Using the record for Cc1cc2cc([N+](=O)[O-])ccc2[nH]1 , report its melting point.
173 to 178 °C

Using the record for CC(/C=C(\C)c1ccc(-c2ccccc2)cc1)=NNS(=O)(=O)c1ccc([N+](=O)[O-])c([N+](=O)[O-])c1 , report its melting point.
200 to 201 °C

----------
Reported metric: melting point (°C)
The answer is to be given in °C; state only the numeric part.

Using the record for CC(=O)c1ccc(Cl)c(Cl)c1Cl , report its melting point.
62

Using the record for NNC(=O)c1ccccc1F , report its melting point.
73

Using the record for O=S(=O)(Nc1c(F)c(F)cc(F)c1F)C(F)(F)F , report its melting point.
95

Using the record for C=CCc1c(O)c(C(=O)c2ccccc2)cc(C(=O)c2ccccc2)c1O , report its melting point.
161

Using the record for CCOC(=O)CN=C(c1ccccc1)c1ccccc1 , report its melting point.
53

Using the record for Nc1ccc(C=Cc2ccccc2)c(N)c1 , report its melting point.
116

Using the record for CC(=NO)C(=O)c1ccccc1 , report its melting point.
114

Using the record for CCOC(C)OCC , report its melting point.
-100

Using the record for Cc1cc(C)c(C#N)c(C)c1 , report its melting point.
53

Using the record for COC(=O)C1CC(=O)CN1C(=O)OC(C)(C)C (stereo not drawn) , report its melting point.
38

Using the record for CC(C)(c1cc(Br)c(O)c(Br)c1)c1cc(Br)c(O)c(Br)c1 , report its melting point.
181

Using the record for CC(C)(Oc1ccc(C2CC2(Cl)Cl)cc1)C(=O)O (stereo not drawn) , report its melting point.
115

Using the record for OC(O)C(Br)(Br)Br , report its melting point.
53.5

Using the record for CC(=O)c1ccc(C)c(C)c1 , report its melting point.
-3

Using the record for O=NN(c1ccccc1)c1ccccc1 , report its melting point.
66.5

Using the record for CC(=O)c1cc2ccccc2oc1=O , report its melting point.
122

Using the record for CC12CCCCC1(C)C1CCC3(C)C(O)CCC3(C)C1CC2 (stereo not drawn) , report its melting point.
167

Using the record for O=C(CCl)c1ccc(C(=O)C(Cl)Cl)cc1 , report its melting point.
147

Using the record for CCCCCCCCCCCCCCCCCCCCCCCCCCCCCCCCCCC , report its melting point.
75

Using the record for CCC(C)(CC)c1cc(NC(=O)c2c(OC)cccc2OC)on1 , report its melting point.
178

----------
Entries whose melting point is below 100 °C take y; entries at or above 100 °C take n.

Threshold test, melting point < 100 °C: NC(=O)C(=O)NC(c1ccccc1)C1(c2ccccc2)OCCO1 (centres undefined)
n

Threshold test, melting point < 100 °C: CCOC(=O)CC(O)(CC(=O)OCC)C(=O)OCC
y

Threshold test, melting point < 100 °C: Cc1ccc(C=NO)cc1
n

Threshold test, melting point < 100 °C: N#Cc1ccc2c(c1)[N+]([O-])=C(c1ccc(C3=[N+]([O-])c4cc(C#N)ccc4C3=O)cc1)C2=O
n

Threshold test, melting point < 100 °C: COc1ccc(O)c(C(=O)O)c1
n

Threshold test, melting point < 100 °C: O=C(O)c1ccc2cc(C(=O)O)ccc2c1
n

Threshold test, melting point < 100 °C: CN(C)CCOc1ccc(C(=C(CCCl)c2ccccc2)c2ccccc2)cc1
n

Threshold test, melting point < 100 °C: Cc1c(O)ncnc1Cl
n

Threshold test, melting point < 100 °C: CCCCC(=O)c1ccc(F)cc1
y

Threshold test, melting point < 100 °C: O=c1n(CCCN2CCN(c3cccc(Cl)c3)CC2)nc2ccccn12
y

Threshold test, melting point < 100 °C: O=Cc1ccc(Cl)cc1F
y

Threshold test, melting point < 100 °C: C1CC2CC1C1OC21 (centres undefined)
n

Threshold test, melting point < 100 °C: Clc1cc(Br)ccc1Br
y

----------
Entries whose melting point is below 50 °C take condition met; entries at or above 50 °C take condition not met.

Threshold test, melting point < 50 °C: CC/C=C\C/C=C\C/C=C\CCCCCCCC(=O)O
condition met

Threshold test, melting point < 50 °C: CCCc1nc(O)n(-c2ccccc2)n1
condition not met

Threshold test, melting point < 50 °C: CCNC(=O)C=C(C)C=CC=C(C)C=Cc1c(C)cc(OC)c(C)c1C
condition not met

Threshold test, melting point < 50 °C: COc1ccc(Cn2cncn2)cc1
condition met

Threshold test, melting point < 50 °C: CC(C)Nc1nc(N)nc(Cl)n1
condition not met

Threshold test, melting point < 50 °C: CCCCCCCCC=CCCCCCCCC(=O)OC
condition met

Threshold test, melting point < 50 °C: CC(=NNC(=O)c1ccncc1)c1ccco1
condition not met

Threshold test, melting point < 50 °C: CCOC(=O)c1cc(-c2ccc(Cl)cc2)oc1C=O
condition not met

Threshold test, melting point < 50 °C: CN(C)c1ccc(-c2ccc(N(C)C)cc2)cc1
condition not met

Threshold test, melting point < 50 °C: O=C1OC(=O)c2cc(Br)ccc21
condition not met

Threshold test, melting point < 50 °C: BrCc1c(CBr)c(CBr)c2ccccc2c1CBr
condition not met

Threshold test, melting point < 50 °C: CCCCNCC(=O)Nc1c(C)cccc1Cl
condition met

Threshold test, melting point < 50 °C: Nc1cc2ccccc2cc1C(=O)O
condition not met

Threshold test, melting point < 50 °C: O=C(OCCO)c1ccccc1
condition met

Threshold test, melting point < 50 °C: Nc1ccc(N2CCCCC2)cc1
condition met

Threshold test, melting point < 50 °C: CCOC(=O)C(CCc1ccccc1)NC(C)C(=O)N1C(=O)N(C)CC1C(=O)O (stereo unspecified)
condition not met

Threshold test, melting point < 50 °C: COc1ccc(C(F)(F)F)cc1N
condition not met

Threshold test, melting point < 50 °C: CCCCCCCCCCCCCCCCOc1ccc(C(=O)O)cc1
condition not met

Threshold test, melting point < 50 °C: CS(=O)(=O)c1ccc(-c2cn3ccccc3n2)cc1
condition not met

Threshold test, melting point < 50 °C: CC(C)(c1cc(Cl)c(O)c(Cl)c1)c1cc(Cl)c(O)c(Cl)c1
condition not met

Threshold test, melting point < 50 °C: Cc1ccc2c(c1C)CCC1C2CC=C2CC(C(=O)O)CCC21C (stereo unspecified)
condition not met

Threshold test, melting point < 50 °C: CN(C)C(=O)Cl
condition met

Threshold test, melting point < 50 °C: CC1CC=CC2C3OC3(C)C(C)C3C(Cc4ccccc4)NC(=O)C23OC(=O)OC=CC(C)(O)C1=O (stereo unspecified)
condition not met

Values compiled from a melting point compilation (Tetko et al.).
